# Tested on: Enterococcus faecalis
# test name: Antibacterial activity against Enterococcus faecalis by microbroth dilution method
# Type: functional
# note: exactly 100 µM is not below, so it is N; use Y for MIC strictly under it

Prompt line: Below 100 µM on MIC? Entry O=C(/C(=C/c1c[nH]c2ccccc12)Oc1ccc2c(CN(CCO)CCO)cc(=O)oc2c1)c1nccs1
Response line: Y

Prompt line: Could you please tell me whether MIC recorded for Cc1ccc(/C=C(\Oc2ccc3c(CN(CCO)CCO)cc(=O)oc3c2)C(=O)c2nccs2)cc1 is less than 100 µM?
Response line: Y

Prompt line: Here's an entry: CCn1cc(/C=C(\Oc2ccc3c(CN(CCO)CCO)cc(=O)oc3c2)C(=O)c2nccs2)c2ccccc21 . Is its MIC below 100 µM?
Response line: Y

Prompt line: Report whether reported MIC is lower than 100 µM (strictly) for O=C(/C(=C/c1ccccc1Cl)Oc1ccc2c(CN(CCO)CCO)cc(=O)oc2c1)c1nccs1
Response line: N

Prompt line: Does COc1ccc(/C=C(\Oc2ccc3c(CN(CCO)CCO)cc(=O)oc3c2)C(=O)c2nccs2)cc1 have MIC strictly under 100 µM?
Response line: Y

Prompt line: Strictly below 100 µM in MIC? O=C(/C(=C/c1ccc(F)cc1)Oc1ccc2c(CN(CCO)CCO)cc(=O)oc2c1)c1nccs1
Response line: N

Prompt line: In the record for O=C(/C(=C/c1ccccc1)Oc1ccc2c(CN(CCO)CCO)cc(=O)oc2c1)c1nccs1 , is MIC less than 100 µM?
Response line: N

Prompt line: Please state whether MIC is below 100 µM for O=C(/C(=C/c1ccc(Cl)cc1)Oc1ccc2c(CN(CCO)CCO)cc(=O)oc2c1)c1nccs1
Response line: N

Prompt line: Please indicate whether the reported MIC of CCn1cc(C(=O)O)c(=O)c2cc(F)c(N3CCNCC3)cc21 [NORFLOXACIN] is strictly below 100 µM.
Response line: Y
